# study system: human IL-6 (mature hIL-6) (human, UniProt P05231 30-212)
# Sequence (P05231 30-212): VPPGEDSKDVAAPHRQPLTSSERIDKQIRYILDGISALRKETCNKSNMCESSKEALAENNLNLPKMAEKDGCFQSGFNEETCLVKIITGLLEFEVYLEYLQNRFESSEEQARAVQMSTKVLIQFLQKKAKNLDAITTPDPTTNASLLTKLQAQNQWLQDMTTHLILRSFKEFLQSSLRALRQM
# procedure details: cell-based or functional assay
Listed below: IC 50 (nM), reporter gene assay, 0% HSA values for each entry.
Provide the reading as a plain figure in nM.

Would you please look over these solved cases?
binder: Compound 3 (VHH, Chem. 24 (C16 diacid substituent) on Cys in position 4 and on Cys in position 6 of the extension (SEQ ID NO: 72); found mass includes position 1 Gln to pyroGlu formation) VHH: QLQLVESGGGWVQPGGSLQLSCTTSGRRFSEYAVGWFRQAPGQEREFVADIGEQAENTWYAHSVLGRFTISRDEAKNTVYLQMDSLKPEDTAVYYCAADKYGVGGNAQGYYDSWGQGTQVTVSS
unit text: nM
IC 50 (nM), reporter gene assay, 0% HSA: 0.029
//
binder: Compound 1 (VHH, Chem. 24 (C16 diacid substituent) on Cys in position 4 and on Cys in position 6 of the extension (SEQ ID NO: 72), Polypeptide derivative; extension E2 at the C-terminus of the VHH; also called VHH_1.12-E2 with 2x Chem. 24) VHH: QLQLVESGGGWVQPGGSLQLSCTTSGRTFSSYAVGWFRQAPGQEREFVADIGENADNTWYAHSVKGRFTISRDNAKNTVYLQMDSLKPEDTAVYYCAADSYGVGGGAQGYYDSWGQGTQVTVSS
unit text: nM
IC 50 (nM), reporter gene assay, 0% HSA: 0.029
//
binder: Polypeptide_34 (VHH, VHH_1.8 with C-terminal His tag extension E1; also called [VHH_1.8]-E1) VHH: EVQLVESGGGLVQAGGSLRLSCTASGGTFSEYAMAWFRQAPGKEREFVTDIGESGGTWYADSVKGRFTISRDNAKNTVYLQMNSLRPEDTAVYYCAADSYGVGGGAERYYDSWGQGTQVTVSS
unit text: nM
IC 50 (nM), reporter gene assay, 0% HSA: 0.066

*Q* Please report IC 50 (nM), reporter gene assay, 0% HSA for the following binder: Compound 2 (VHH, Chem. 24 (C16 diacid substituent) on Cys in position 4 and on Cys in position 6 of the extension (SEQ ID NO: 72), Polypeptide derivative; extension E2 at the C-terminus of the VHH; also called VHH_1.13-E2 with 2x Chem. 24) VHH: EVQLVESGGGLVQAGGSLQLSCTASGGTFSEYAMAWFRQAPGQEREFVTDIGESGGTWYADSVKGRFTISRDNAKNTVYLQMDSLRPEDTAVYYCAADSYGVGGGAERYYDSWGQGTQVTVSS
*A* 0.065

*Q* Please report IC 50 (nM), reporter gene assay, 0% HSA for the following binder: Compound 4 (VHH, Chem. 24 (C16 diacid substituent) on Cys in position 4 and on Cys in position 6 of the extension (SEQ ID NO: 72), Polypeptide derivative; extension E2 at the C-terminus of the VHH; also called VHH_1.1-E2 with 2x Chem. 24) VHH: EVQLVESGGGWVQPGGSLQLSCTTSGRRFSEYAVGWFRQAPGQEREFVADIGEQAENTWYAHSVLGRFTISRDEAKNTVYLQMDSLKPEDTAVYYCAADKYGVGGNAQGYYDSWGQGTQVTVSS
*A* 0.024

*Q* Please report IC 50 (nM), reporter gene assay, 0% HSA for the following binder: Polypeptide_22 (VHH, VHH_1.2 with C-terminal His tag extension E1; also called [VHH_1.2]-E1) VHH: EVQLVESGGGLVQPGGSLKLSCTTSGRRFSEYAVGWFRQGPGKEREFVADIGEQAENTWYAESVLGRFTISRDDAKNTVYLQMDSLKPEDTAVYYCAADKYGVGGNAQGYYDSWGQGTQVTVSS
*A* 0.029

*Q* Please report IC 50 (nM), reporter gene assay, 0% HSA for the following binder: Polypeptide_19 (VHH, VHH_1.11 with C-terminal His tag extension E1; also called [VHH_1.11]-E1) VHH: QLQLVESGGGWVQPGGSLKLSCTTSGRTFSSYAVGWFRQAPGKEREFVADIGENADNTWYAHSVKGRFTISRDNAKNTVYLQMNSLKPEDTAVYYCAADSYGVGGGAQGYYDSWGQGTQVTVSS
*A* 0.117

*Q* Please report IC 50 (nM), reporter gene assay, 0% HSA for the following binder: Compound 6 (VHH, Chem. 24 (C16 diacid substituent) on Cys in position 4 and on Cys in position 6 of the extension (SEQ ID NO: 72), Polypeptide derivative; extension E2 at the C-terminus of the VHH; also called VHH_1.3-E2 with 2x Chem. 24) VHH: EVQLVESGGGLVQPGGSLQLSCTTSGRRFSEYAVGWFRQGPGKEREFVADIGEQAENTWYAHSVLGRFTISRDDAKNTVYLQMDSLKPEDTAVYYCAADKYGVGGNAQGYYDSWGQGTQVTVSS
*A* 0.018

*Q* Please report IC 50 (nM), reporter gene assay, 0% HSA for the following binder: Polypeptide_46 (VHH) VHH: QLQLVESGGGWVQPGGSLQLSCTTSGRRFSEYAVGWFRQAPGQEREFVADIGEQAENTWYAHSVLGRFTISRDEAKNTVYLQMDSLKPEDTAVYYCAADKYGVGGNAQGYYDSWGQGTQVTVSS
*A* 0.021

*Q* Please report IC 50 (nM), reporter gene assay, 0% HSA for the following binder: Polypeptide_27 (VHH, VHH_1.4 with C-terminal His tag extension E1; also called [VHH_1.4]-E1) VHH: EVQLVESGGGLVQPGGSLQLSCTTSGRKFDEYAVGWFRQAPGKEREFVADIGENAENTWYAHSVLGRFTISRDDAKNTVYLQMDSLKPEDTAVYYCAADKYGVGGNAQGYYDSWGQGTQVTVSS
*A* 0.026
